Quick record: IC50, Proto-oncogene tyrosine-protein kinase Src (Homo sapiens, UniProt P12931).
Express the result in µM but write the number alone.

Some molecules with recorded IC50:
{"columns": ["Structure String", "System Under Test", "IC50 [µM]"],
 "data": [
  ["COc1cc2nccc(Oc3cc(C)c(C)cc3C(C)=O)c2cc1OC", "Proto-oncogene tyrosine-protein kinase Src (Homo sapiens, UniProt P12931)", 13],
  ["COc1cc2nccc(Oc3ccc(C)cc3C(C)=O)c2cc1OC", "Proto-oncogene tyrosine-protein kinase Src (Homo sapiens, UniProt P12931)", 8.4]
]}

With those in mind, consider the next molecule.
Input: Report IC50 for COc1cc2nccc(Oc3ccc(C)cc3C(=O)c3ccccc3)c2cc1OC please.
Output: 1.7
